System: NCI-H1048 cells
Experiment: MTT proliferation assay, NCI-H1048;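 further: Dose-response in 96-well plates over 8 or 10 concentration points, with exposure spanning 3-4 cell doublings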
Type: cell-based
Conditions: 5 days compound exposure, 1:3 serial dilution starting at 10 μM
*1 amine or outer side, *2 acyl side, *3 side chain or, on linkers, in order; H or OH if unused. Where a SMILES comes first, the peptide text is derived from it. Bridges are numbered along the chain shown (N, C = ends). [ ]: non-standard residue; d: D form. The star is where a group is joined. X122 = CN([C@@H](Cc1cc(Cl)ccc1C1=CCN(C(=O)C(C)(C)C)CC1)C(=O)[*:2])[*:1]; NMehhhLys(Me) = CN([C@@H](CCCCCCCN(C)[*:3])C(=O)[*:2])[*:1]; NMe(hhhLys) = CN([C@@H](CCCCCCCN[*:3])C(=O)[*:2])[*:1]; cBuCO(3,3-F2-1-CF3) = O=C(C1(C(F)(F)F)CC(F)(F)C1)*; NMePhe(2,5-Cl2) = CN[C@@H](Cc1cc(Cl)ccc1Cl)C(=O)O; Pro(trans-4-F) = O=C(O)[C@@H]1C[C@@H](F)CN1; Gly(cPr) = N[C@H](C(=O)O)C1CC1
Measured GI50, listed per entry.
Hi! Could you send only the number? It should be in nM, unit omitted.

Reference set, count: 2
CC(C)C[C@@H]1NC(=O)[C@@H](N(C)C(=O)[C@@H](NC(=O)[C@@H]2C[C@@H](F)CN2C(=O)C2(C(F)(F)F)CC(F)(F)C2)C2CC2)CCCCCCCN(C)C(=O)[C@H](Cc2cc(Cl)ccc2C2=CCN(C(=O)C(C)(C)C)CC2)N(C)C1=O [Example 144] ({cBuCO(3,3-F2-1-CF3)}-[Pro(trans-4-F)][Gly(cPr)][NMehhhLys(Me)]L[X122]; lactam 3-C) | 70
CC(C)C[C@@H]1NC(=O)[C@@H](N(C)C(=O)[C@H](C)NC(=O)[C@@H]2C[C@@H](F)CN2C(=O)C2(C(F)(F)F)CC(F)(F)C2)CCCCCCCNC(=O)[C@H](Cc2cc(Cl)ccc2Cl)N(C)C1=O [Example 55] ({cBuCO(3,3-F2-1-CF3)}-[Pro(trans-4-F)]A[NMe(hhhLys)]L[NMePhe(2,5-Cl2)]; lactam 3-C) | 560

From here, focus on the item given below.
Measured GI50, CC(C)C[C@@H]1NC(=O)[C@@H](N(C)C(=O)[C@@H](NC(=O)[C@@H]2C[C@@H](F)CN2C(=O)C2(C(F)(F)F)CC(F)(F)C2)C2CC2)CC=CCCCCNC(=O)[C@H](Cc2cc(Cl)cnc2OC2CC2)N(C)C1=O (single isomer, unassigned) [Example 102-P2] : 80
